- system_under_test: Adenosine receptor A1 (Homo sapiens, UniProt P30542)
- Sequence (P30542 whole entry): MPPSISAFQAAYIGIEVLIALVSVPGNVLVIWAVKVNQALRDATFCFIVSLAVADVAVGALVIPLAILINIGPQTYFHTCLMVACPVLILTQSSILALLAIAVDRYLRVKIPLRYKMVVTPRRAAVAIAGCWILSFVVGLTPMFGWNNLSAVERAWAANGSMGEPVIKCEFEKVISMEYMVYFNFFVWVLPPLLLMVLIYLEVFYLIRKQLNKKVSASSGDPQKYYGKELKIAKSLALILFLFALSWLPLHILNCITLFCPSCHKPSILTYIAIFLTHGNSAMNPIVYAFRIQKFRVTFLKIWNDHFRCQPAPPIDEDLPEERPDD
- assay_explanation: Binding affinity against adenosine A1 receptor in human cortical membranes using [3H]CHA as radioligand
- Type: cell membranes
observed_property: Ki (nM)

Consider the following illustrative entries.
Task item: What Ki appears in the records for this compound with Adenosine receptor A1 (Homo sapiens, UniProt P30542)? "CCOc1cc(-c2ccccc2)nc2nc(Br)ccc12"
Reply: 1000

Task item: Would you kindly repeat that for "Oc1cc(-c2ccccc2)nc2ncccc12" ?
Reply: 1300

Task item: Request: "CCOc1ccc2c(O)cc(-c3ccccc3)nc2n1"
Reply: 2600

Task item: Similarly, "Oc1cc(-c2ccccc2)nc2nc(NC3CCCCC3)ccc12" ?
Reply: 2200

Task item: Then this compound: "Cc1ccc2c(O)cc(-c3ccccc3)nc2n1"
Reply: 430

Task item: And what about the compound "Cc1ccc2c(O)cc(-c3ccc(N)cc3)nc2n1" ?
Reply: 910

(a) Cc1ccc2c(N)cc(-c3ccccc3)nc2n1
(b) Cc1ccc2c(Oc3ccccc3)cc(-c3ccccc3)nc2n1
Task item: Hi, I'm comparing two records. Which one has the lower Ki, a or b ? When you have decided, please share the label of that item.
Reply: a

(1) Oc1cc(-c2ccccc2)nc2nc(Br)ccc12
(2) Oc1cc(-c2ccccc2)nc2nc(F)ccc12
Task item: Returns: the argument ( 1 or 2 ) having the larger Ki. Please identify the chosen entry by its label.
Reply: 2
(2: 1400 nM, 1: 360 nM)

(P) Cc1ccc2c(S)cc(-c3ccccc3)nc2n1
(Q) Oc1cc(-c2ccccc2)nc2nc(Cl)ccc12
Task item: // compare measured Ki between P and Q ; output the lower one Pick one; state its label.
Reply: Q
(Q: 300 nM, P: 2000 nM)

###

- system_under_test: Adenosine receptor A2a (Homo sapiens, UniProt P29274)
- Sequence (P29274 whole entry): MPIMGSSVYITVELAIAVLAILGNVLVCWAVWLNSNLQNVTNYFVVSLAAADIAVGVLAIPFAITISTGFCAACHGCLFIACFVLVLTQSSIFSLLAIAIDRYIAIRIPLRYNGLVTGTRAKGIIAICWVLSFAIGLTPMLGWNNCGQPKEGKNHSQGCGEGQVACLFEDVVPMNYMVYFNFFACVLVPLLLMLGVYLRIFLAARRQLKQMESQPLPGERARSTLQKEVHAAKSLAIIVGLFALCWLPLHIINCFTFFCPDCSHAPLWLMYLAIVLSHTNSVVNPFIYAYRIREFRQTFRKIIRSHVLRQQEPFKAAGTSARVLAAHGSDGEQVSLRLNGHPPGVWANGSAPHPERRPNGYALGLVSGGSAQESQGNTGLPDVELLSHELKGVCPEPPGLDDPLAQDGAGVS
pKi: −log10 of the molar value.
observed_property: pKi

(1) CCOc1ccc2c(O)cc(-c3ccccc3)nc2n1
(2) Cc1ccc2c(O)cc(-c3ccc(N)cc3)nc2n1
(3) Cc1ccc2c(O)cc(-c3ccccc3F)nc2n1
Task item: # rank_down: sort by pKi, max first Lab note: final answer is the ordered label list.
Reply: 3, 2, 1

###

- system_under_test: Adenosine receptor A1 (Bos taurus, UniProt P28190)
- Sequence (P28190 whole entry): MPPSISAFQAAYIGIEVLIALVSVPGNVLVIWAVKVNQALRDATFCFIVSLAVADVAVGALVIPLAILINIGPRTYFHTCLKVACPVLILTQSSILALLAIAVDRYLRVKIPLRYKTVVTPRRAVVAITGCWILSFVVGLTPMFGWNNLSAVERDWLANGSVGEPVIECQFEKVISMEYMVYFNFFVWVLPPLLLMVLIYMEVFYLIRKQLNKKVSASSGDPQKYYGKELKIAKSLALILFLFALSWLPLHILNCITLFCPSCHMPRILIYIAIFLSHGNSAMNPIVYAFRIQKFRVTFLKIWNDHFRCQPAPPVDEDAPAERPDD
- assay_explanation: Binding affinity against adenosine A1 receptor in bovine cortical membranes using [3H]CHA as radioligand
- Type: cell membranes
pKi: −log10 of the molar value.
observed_property: pKi

Some solved entries appear below for comparison.
Task item: What reported pKi corresponds to "Cc1ccc2c(O)cc(-c3cccc([N+](=O)[O-])c3)nc2n1" on Adenosine receptor A1 (Bos taurus, UniProt P28190)?
Reply: 7.82

Task item: Record: "CCCc1cc(O)c2ccc(N)nc2n1"
Reply: 6.68

Task item: Input "Oc1cc(-c2ccccc2)nc2nc(N3CCCCC3)ccc12"
Reply: 8.14

Task item: Another compound to look at: "Oc1cc(-c2ccccc2)nc2nc(NC3CCCCC3)ccc12"
Reply: 7.15

Task item: Please give the result for "CCOc1cc(-c2ccccc2)nc2c1ccc(=O)n2CC" too.
Reply: 5.33

Task item: Queued: "CSc1cc(-c2ccccc2)nc2nc(C)ccc12"
Reply: 6.42

(I) CN(C)c1ccc2c(O)cc(-c3ccccc3)nc2n1
(II) Cc1ccc2c(O)ccnc2n1
Task item: Which value of pKi is greater, the one for I or the one for II ? Identify your pick by its label.
Reply: I
